# Tested on: OVCAR-5 ovarian
# PROTOCOL DETAILS: NCI tumour cell line growth inhibition, 48 h; in the data active means GI50 below about 0.43 µM; inactive means the rest
Classes used: active, inactive

[[record]]
compound = "COc1ccc(C(=O)c2cc3c(N)c(C(=O)Nc4ccc(C)cc4)sc3nc2C)cc1"
category = "inactive"

[[record]]
compound = "COc1cccc(NC(=O)c2sc3nc4c(cc3c2N)C(=O)CCC4)c1"
category = "inactive"

[[record]]
compound = "COc1ccc(/C=N\\Nc2ccc([N+](=O)[O-])cn2)cc1OC"
category = "inactive"

[[record]]
compound = "COc1ccc2c(c1)CC[C@H](O)/C2=C/c1cc(OC)c(OC)c(OC)c1"
category = "inactive"

[[record]]
compound = "Cn1c2ccc(Br)cc2c2c3c(c4c5ccccc5[nH]c4c21)C(=O)N(O)C3=O"
category = "inactive"

[[record]]
compound = "COc1cc(-c2nc(-c3nc4ccccc4[nH]3)cc3c2[nH]c2ccccc23)cc(OC)c1OC"
category = "inactive"

[[record]]
compound = "N#CC1=C(N)NC(N2CCOCC2)=NC12Nc1ccccc1N2"
category = "inactive"

[[record]]
compound = "O=C(Nc1ccc(-n2ccc3c(NC(=O)c4ccccc4)ncnc32)cc1)Nc1cccc(Cl)c1Cl"
category = "inactive"

[[record]]
compound = "COc1ccccc1CNCCCN1C(=O)c2ccc3c4c(ccc(c24)C1=O)C(=O)N(CCCCNCCCN)C3=O"
category = "inactive"

[[record]]
compound = "NC(=O)c1cccc(Nc2nccc(Nc3cccc4[nH]ncc34)n2)c1"
category = "inactive"

[[record]]
compound = "CN1C(=O)N[C@H]2[C@@H]3NC(=O)c4ccc(Br)n4[C@@H]3C[C@]21O"
category = "inactive"

[[record]]
compound = "CC(C)(C)[Si](C)(C)OC1[C@@H](O[Si](C)(C)C(C)(C)C)[C@@H](CNC(=O)NC(=O)CCl)O[C@H]1n1cnc2c(NC(=O)Nc3ccccc3)ncnc21 (stereo partly drawn)"
category = "inactive"

[[record]]
compound = "Cc1cc(C)c(Cn2cnc3c(Cl)ncnc32)c(C)c1CCl"
category = "inactive"

[[record]]
compound = "C=C(OC1C(C)=C2C(C1OC(=O)CCCCCCC)C(C)(OC(C)=O)CC(OC(=O)CCC)C1(O)C2OC(=O)C1(C)O)/C(C)=C/C (stereo not drawn)"
category = "active"

[[record]]
compound = "COc1cc(CNc2ccccc2C(=O)N2CCN(C(=O)c3cc(-c4cc(OC)c(OC)c(OC)c4)n4nc(-c5ccccc5)cc4n3)CC2)cc(OC)c1OC"
category = "inactive"

[[record]]
compound = "OCC(O)c1nc2ccc3[nH]ncc3c2c2c1CCCC2 (stereo not drawn)"
category = "inactive"

[[record]]
compound = "CCn1c(-c2cc3ccccc3cc2O)nn(C(=O)c2c(Cl)cccc2Cl)c1=S"
category = "inactive"

[[record]]
compound = "O=Cc1ccc(-c2ccc(-c3nc4ccccc4o3)cc2)o1"
category = "inactive"


---

# Tested on: A549 NSCLC
# PROTOCOL DETAILS: NCI tumour cell line growth inhibition, 48 h
Reported TGI values follow for various molecules
PROPERTY LABEL: TGI

[[record]]
molecule = "COc1c(O)cc2c(c1O)C(=O)/C(=C/c1ccc(O)cc1)CO2"
reported_result = "> 100 µM"

[[record]]
molecule = "COc1ccc(N2C(=O)C3c4[nH]c5ccc(F)cc5c4C4CCC(c5ccccc5)CC4C3C2=O)cc1 (centres undefined)"
reported_result = "> 100 µM"

[[record]]
molecule = "CCCCCCCCCCCCCCCCOC[C@@H](COC(c1ccccc1)(c1ccccc1)c1ccccc1)O[P+](=S)OC (some centres undefined)"
reported_result = "21 µM"

[[record]]
molecule = "O=C1C(Cl)C(c2ccccc2O)N1n1cnc2ccccc2c1=O (centres undefined)"
reported_result = "> 100 µM"

[[record]]
molecule = "CN(C)C(=O)OC(Cn1cncn1)(Cn1cncn1)c1ccc(Cl)cc1Cl"
reported_result = "> 100 µM"

[[record]]
molecule = "CC[C@H]1C=CCC[C@@]2(C[C@@H]3CC[C@H]4[C@@H](C(=O)OCCCCCCCCCCCCCCCC(=O)N(CCCN)C[C@@H](O)CCN)[C@@]5(CCC[C@@H](C)O5)NC(=[N+]34)N2)O1"
reported_result = "3.35 µM"

[[record]]
molecule = "O=C(O)CCC(=O)c1ccc(Cl)cc1"
reported_result = "> 100 µM"

[[record]]
molecule = "CCCCON1C[C@H](OC(C)=O)C(OC(C)=O)[C@H](OC(C)=O)C1 (some centres undefined)"
reported_result = "> 100 µM"

[[record]]
molecule = "Cc1ccc(C)c(C2NC(=O)c3ccccc3N2)c1 (centres undefined)"
reported_result = "> 100 µM"

[[record]]
molecule = "Cc1cn([C@@H]2O[C@H](CO[Si](C)(C)C(C)(C)C)[C@]3(O[C@H]3C(=O)NN)[C@H]2O[Si](C)(C)C(C)(C)C)c(=O)[nH]c1=O"
reported_result = "16.6 µM"

[[record]]
molecule = "O=[N+]([O-])c1cc2c(cc1/C=N/n1c(CO)nc3ccccc31)OCO2"
reported_result = "> 100 µM"

[[record]]
molecule = "C[N+](C)(C)CC(=O)N/N=C(\\C(=O)NC1=C(Cl)C(=O)c2ccccc2C1=O)C(C#N)c1csc(-c2ccc([N+](=O)[O-])cc2)n1 (centres undefined)"
reported_result = "> 100 µM"

[[record]]
molecule = "COc1cc(Nc2nc3ccccc3cc2C(=O)Nc2ccc(F)c(F)c2)cc(OC)c1OC"
reported_result = "> 100 µM"

[[record]]
molecule = "CCOP(=O)(OCC)C(N)c1ccc(Cl)cc1 (centres undefined)"
reported_result = "> 100 µM"

[[record]]
molecule = "CN(/N=C/c1ccnc2ccccc12)c1ccc(Cl)cc1[N+](=O)[O-]"
reported_result = "> 100 µM"

[[record]]
molecule = "CCc1cccc(CC)c1NC(=O)C1=C(C)NC(C)=C(C(=O)Nc2c(CC)cccc2CC)C1c1ccc([N+](=O)[O-])cc1"
reported_result = "> 100 µM"

[[record]]
molecule = "O=C(/C=C/c1ccccc1)n1c(-c2ccc(Cl)cc2)nc2ccccc21"
reported_result = "7.3 µM"

[[record]]
molecule = "O=c1[nH]nc(Cc2ccccc2)n1CCO"
reported_result = "> 100 µM"

[[record]]
molecule = "O=[N+]([O-])c1ccc(C=NCC2CCCN3CCCCC23)cc1 (centres undefined)"
reported_result = "> 100 µM"

